Hello, the source for this data is paper PMC6733935, in case you need it.

- assay overview: in vivo
- Parameters: species or system Balb/c mice
- reported conditions: Balb/c, mouse, iv, 2 h
Numbered stars: 1 amine (or outer) side, 2 acyl side, 3 side chain; on linkers, the order of the positions; unused ones are H or OH. Square brackets hold non-standard residues; d marks the D form. Peptide text beside a SMILES is read from it. * marks the point of attachment. DOTA = O=C(O)CN1CCN(CC(=O)O)CCN(CC(=O)*)CCN(CC(=O)O)CC1; Cha = N[C@@H](CC1CCCCC1)C(=O)O; X1 = O=C(CCC(=O)[*:2])CN[*:1]; 4Abz = Nc1ccc(C(=O)O)cc1; Nle = CCCC[C@H](N)C(=O)O; Ahx = NCCCCCC(=O)O
Lab note: compare Uptake in Lungs against 0.2 %ID/g. Equal or greater, write Condition met. Smaller, write Condition not met.

compound	discrete label
CCCC[C@H](NC(=O)[C@H](Cc1c[nH]cn1)NC(=O)[C@H](CC1CCCCC1)NC(=O)[C@@H](NC(=O)[C@H](C)NC(=O)[C@H](Cc1c[nH]c2ccccc12)NC(=O)[C@H](CCC(N)=O)NC(=O)[C@H](CS)NC(=O)CNC(=O)CNC(=O)CCC(=O)CNC(=O)CN1CCN(CC(=O)O)CCN(CC(=O)O)CCN(CC(=O)O)CC1)C(C)C)C(=O)N[C@@H](CCSC)C(N)=O [^68Ga-DOTA-ALA-BN Tris-, metal not drawn] ({DOTA}-[X1]GGCQWAV[Cha]H[Nle]M-NH2)	Condition not met
CCCC[C@H](NC(=O)[C@H](Cc1c[nH]cn1)NC(=O)[C@H](CC1CCCCC1)NC(=O)[C@@H](NC(=O)[C@H](C)NC(=O)[C@H](Cc1c[nH]c2ccccc12)NC(=O)[C@H](CCC(N)=O)NC(=O)[C@H](CS)NC(=O)CNC(=O)CNC(=O)CCC(=O)CNC(=O)CN1CCN(CC(=O)O)CCN(CC(=O)O)CCN(CC(=O)O)CC1)C(C)C)C(=O)N[C@@H](CCSC)C(N)=O [^68Ga-DOTA-ALA-BN Cyclen, metal not drawn] ({DOTA}-[X1]GGCQWAV[Cha]H[Nle]M-NH2)	Condition met
CCCC[C@H](NC(=O)[C@H](Cc1c[nH]cn1)NC(=O)[C@H](CC1CCCCC1)NC(=O)[C@@H](NC(=O)[C@H](C)NC(=O)[C@H](Cc1c[nH]c2ccccc12)NC(=O)[C@H](CCC(N)=O)NC(=O)[C@H](CS)NC(=O)CNC(=O)CNC(=O)c1ccc(NC(=O)CN2CCN(CC(=O)O)CCN(CC(=O)O)CCN(CC(=O)O)CC2)cc1)C(C)C)C(=O)N[C@@H](CCSC)C(N)=O [^68Ga-DOTA-Abz-BN Tris-, metal not drawn] ({DOTA-4Abz}-GGCQWAV[Cha]H[Nle]M-NH2)	Condition met
CCCC[C@H](NC(=O)[C@H](Cc1c[nH]cn1)NC(=O)[C@H](CC1CCCCC1)NC(=O)[C@@H](NC(=O)[C@H](C)NC(=O)[C@H](Cc1c[nH]c2ccccc12)NC(=O)[C@H](CCC(N)=O)NC(=O)[C@H](CS)NC(=O)CNC(=O)CNC(=O)CCCCCNC(=O)CN1CCN(CC(=O)O)CCN(CC(=O)O)CCN(CC(=O)O)CC1)C(C)C)C(=O)N[C@@H](CCSC)C(N)=O [^68Ga-DOTA-Ahx-BN Tris-, metal not drawn] ({DOTA-Ahx}-GGCQWAV[Cha]H[Nle]M-NH2)	Condition met

Input line: # check: Uptake in Lungs of CCCC[C@H](NC(=O)[C@H](Cc1c[nH]cn1)NC(=O)[C@H](CC1CCCCC1)NC(=O)[C@@H](NC(=O)[C@H](C)NC(=O)[C@H](Cc1c[nH]c2ccccc12)NC(=O)[C@H](CCC(N)=O)NC(=O)[C@H](CS)NC(=O)CNC(=O)CNC(=O)CCCCCNC(=O)CN1CCN(CC(=O)O)CCN(CC(=O)O)CCN(CC(=O)O)CC1)C(C)C)C(=O)N[C@@H](CCSC)C(N)=O [^68Ga-DOTA-Ahx-BN Cyclen, metal not drawn] ({DOTA-Ahx}-GGCQWAV[Cha]H[Nle]M-NH2) is greater than or equal to 0.2 %ID/g
Output line: Condition not met

====

- Test system: MDA-MB-231 tumors
- assay overview: in vivo
- Format: in vivo, nude mice
- reported conditions: female, nude, mouse, in vivo, 1 h
Square brackets hold non-standard residues; d marks the D form. Peptide text beside a SMILES is read from it. * marks the point of attachment. DOTA = O=C(O)CN1CCN(CC(=O)O)CCN(CC(=O)*)CCN(CC(=O)O)CC1; Cha = N[C@@H](CC1CCCCC1)C(=O)O; 4Abz = Nc1ccc(C(=O)O)cc1; Nle = CCCC[C@H](N)C(=O)O
metric name: Uptake in Lungs (% ID/g)
Provide only the numeric value, understood in % ID/g.

Input line: Report Uptake in Lungs for CCCC[C@H](NC(=O)[C@H](Cc1c[nH]cn1)NC(=O)[C@H](CC1CCCCC1)NC(=O)[C@@H](NC(=O)[C@H](C)NC(=O)[C@H](Cc1c[nH]c2ccccc12)NC(=O)[C@H](CCC(N)=O)NC(=O)[C@H](CS)NC(=O)CNC(=O)CNC(=O)c1ccc(NC(=O)CN2CCN(CC(=O)O)CCN(CC(=O)O)CCN(CC(=O)O)CC2)cc1)C(C)C)C(=O)N[C@@H](CCSC)C(N)=O [^68Ga-DOTA-Abz-BN Tris-, metal not drawn] ({DOTA-4Abz}-GGCQWAV[Cha]H[Nle]M-NH2) please.
Output line: 1.82

====

# key: entry, value: Uptake in Liver
- assay overview: in vivo
- Design: species or system Balb/c mice
- reported conditions: Balb/c, mouse, iv, 1 h
Numbered stars: 1 amine (or outer) side, 2 acyl side, 3 side chain; on linkers, the order of the positions; unused ones are H or OH. Square brackets hold non-standard residues; d marks the D form. Peptide text beside a SMILES is read from it. * marks the point of attachment. DOTA = O=C(O)CN1CCN(CC(=O)O)CCN(CC(=O)*)CCN(CC(=O)O)CC1; Cha = N[C@@H](CC1CCCCC1)C(=O)O; X1 = O=C(CCC(=O)[*:2])CN[*:1]; 4Abz = Nc1ccc(C(=O)O)cc1; Nle = CCCC[C@H](N)C(=O)O; Ahx = NCCCCCC(=O)O
Provide only the numeric value, understood in %ID/g.

compound	Uptake in Liver [%ID/g]
CCCC[C@H](NC(=O)[C@H](Cc1c[nH]cn1)NC(=O)[C@H](CC1CCCCC1)NC(=O)[C@@H](NC(=O)[C@H](C)NC(=O)[C@H](Cc1c[nH]c2ccccc12)NC(=O)[C@H](CCC(N)=O)NC(=O)[C@H](CS)NC(=O)CNC(=O)CNC(=O)c1ccc(NC(=O)CN2CCN(CC(=O)O)CCN(CC(=O)O)CCN(CC(=O)O)CC2)cc1)C(C)C)C(=O)N[C@@H](CCSC)C(N)=O [^68Ga-DOTA-Abz-BN Tris-, metal not drawn] ({DOTA-4Abz}-GGCQWAV[Cha]H[Nle]M-NH2)	1.59
CCCC[C@H](NC(=O)[C@H](Cc1c[nH]cn1)NC(=O)[C@H](CC1CCCCC1)NC(=O)[C@@H](NC(=O)[C@H](C)NC(=O)[C@H](Cc1c[nH]c2ccccc12)NC(=O)[C@H](CCC(N)=O)NC(=O)[C@H](CS)NC(=O)CNC(=O)CNC(=O)CCCCCNC(=O)CN1CCN(CC(=O)O)CCN(CC(=O)O)CCN(CC(=O)O)CC1)C(C)C)C(=O)N[C@@H](CCSC)C(N)=O [^68Ga-DOTA-Ahx-BN Tris-, metal not drawn] ({DOTA-Ahx}-GGCQWAV[Cha]H[Nle]M-NH2)	1.12
CCCC[C@H](NC(=O)[C@H](Cc1c[nH]cn1)NC(=O)[C@H](CC1CCCCC1)NC(=O)[C@@H](NC(=O)[C@H](C)NC(=O)[C@H](Cc1c[nH]c2ccccc12)NC(=O)[C@H](CCC(N)=O)NC(=O)[C@H](CS)NC(=O)CNC(=O)CNC(=O)c1ccc(NC(=O)CN2CCN(CC(=O)O)CCN(CC(=O)O)CCN(CC(=O)O)CC2)cc1)C(C)C)C(=O)N[C@@H](CCSC)C(N)=O [^68Ga-DOTA-Abz-BN Cyclen, metal not drawn] ({DOTA-4Abz}-GGCQWAV[Cha]H[Nle]M-NH2)	0.68

Here is the next item to consider.
Input line: Report Uptake in Liver for CCCC[C@H](NC(=O)[C@H](Cc1c[nH]cn1)NC(=O)[C@H](CC1CCCCC1)NC(=O)[C@@H](NC(=O)[C@H](C)NC(=O)[C@H](Cc1c[nH]c2ccccc12)NC(=O)[C@H](CCC(N)=O)NC(=O)[C@H](CS)NC(=O)CNC(=O)CNC(=O)CCC(=O)CNC(=O)CN1CCN(CC(=O)O)CCN(CC(=O)O)CCN(CC(=O)O)CC1)C(C)C)C(=O)N[C@@H](CCSC)C(N)=O [^68Ga-DOTA-ALA-BN Tris-, metal not drawn] ({DOTA}-[X1]GGCQWAV[Cha]H[Nle]M-NH2) please.
Output line: 1.78
